Value source: PubChem BioAssay (NCI)

Tested on: CAKI-1 renal
METHOD NOTES: NCI tumour cell line growth inhibition, 48 h
MEASURE: TGI

Some compounds with recorded TGI:
c1cnc2c(c1)-n1cccc1C1(CCCCC1)NN2: > 100 µM
N/N=C(/Cc1ccccc1)NNO: > 100 µM
O=C(O)C(Cc1ccccc1)NCc1c(O)ccc2c(-c3ccccc3)cc(=O)oc12 (stereo unspecified): > 100 µM
FC1=C2C3CCC(C3)C2C1(F)F (stereo unspecified): > 100 µM
CC(=O)[CH-]C(C)=O.CC(=O)[CH-]C(C)=O.[O-]c1ccccc1.[O-]c1ccccc1.[Ti+4]: > 100 µM

Please examine the following record next.
Lab note: CAKI-1 renal assay, enter TGI for N=C1CCCC1C(=S)SCCC(N)=O (stereo unspecified) here
> 100 µM

----------
Tested on: HOP-92 NSCLC
METHOD NOTES: NCI tumour cell line growth inhibition, 48 h
# maps each entry to its TGI
Record the value in µM, omitting the unit from your answer.

O=P1(N(CCCl)CCCl)Oc2ccc(Cl)cc2C(C(Cl)(Cl)Cl)c2cc(Cl)ccc2O1 (stereo not given): 40.4
COC1(CC[C@@H](C)COC2OC(CO)C(O)C(O)C2O)OC2C[C@H]3[C@@H]4CC[C@H]5C[C@@H](OC6OC(CO)C(OC7OC(CO)C(O)C(O)C7O)C(O)C6OC6OC(C)C(O)C(O)C6O)[C@H](O)C[C@]5(C)[C@H]4CC[C@]3(C)C2[C@@H]1C (stereo not given in full): 12.8
CCCCNC(c1ccc(Cl)cc1)C(O)c1ccc(Cl)cc1 (stereo not given): 5.16
CN1CCN(C(=O)c2cn(Cc3cncn3Cc3ccc4c(c3)OCO4)cc2-c2cccc3ccccc23)CC1: 57.8
COC1=CC(c2ccc[nH]2)=N/C1=C\c1[nH]c(C)c(C(=O)CCCCCCCCC(=O)O[C@H]2CC[C@H]3C4CCc5cc(O)ccc5C4CC[C@]23C)c1C (stereo not given in full): 1.43
CCN(CC)C(=S)SC(C(=O)Nc1nnc(-c2ccc(Cl)cc2)o1)c1ccccc1 (stereo not given): 51.5
COc1ccc(-n2c(=S)sc3c(Cl)nc(C)nc32)c(OC)c1: 8.46
CC1=NN(C(=O)CC(=O)Nc2cccc(C)c2)C(=O)C1N=Nc1ccc(S(=O)(=O)CCOS(=O)(=O)O)cc1 (stereo not given): 17.9

Turning to the following compound.
Quote TGI with test system HOP-92 NSCLC for [N-]=[N+]=CC(=O)CCC(N)C(=O)O (stereo not given)
69.3

----------
Catalogue of TGI values
Tested on: HCT-116 colon
METHOD NOTES: NCI tumour cell line growth inhibition, 48 h

Example results:
CC(C)(C)C#COC(=O)c1ccccc1: > 100 µM
Nc1c(C(=O)c2ccc(Cl)c(Cl)c2)[nH]c(NCc2ccccc2)c1C(=S)Nc1ccccc1: 12.6 µM
COc1cccc2c1C(=O)c1c(O)c3c(c(O)c1C2=O)C[C@@](O)(C(C)=O)CC3OC1CC(OC2CC(N)C(O)C(C)O2)C(O)C(C)O1 (some centres undefined): > 100 µM
OCC(O)C(O)C(O)C(/C=N\Nc1ncnc2c(Br)cc(Br)cc12)=N/Nc1ncnc2c(Br)cc(Br)cc12 (centres undefined): > 100 µM
CCCCCCCC(=O)OCC/C=C/C1OC1C1OC(=O)/C=C\C=C\C(=O)N(C(C)=O)C(=O)/C=C(/C)CCC2OC2C1OC(=O)NC(C)=O (centres undefined): 4.97 µM
C[C@]12CC[C@H]3[C@@H](CC=C4C[C@@H](N5CCCC5)CC[C@@]43C)[C@@H]1C[C@H](N1CCCCC1)[C@@H]2O: > 100 µM
N#Cc1c(-c2ccc([N+](=O)[O-])cc2)c(C#N)c(=O)n(NS(=O)(=O)c2ccccc2)c1S: 39.8 µM
CC1=NN(c2cccc(Cl)c2)C(=O)/C1=C\c1cn(CC(O)CN2CCCCC2)c2ccccc12 (centres undefined): 3.35 µM

Continue with the next molecule.
Report value only: TGI, HCT-116 colon, COC(=N)C1(C#N)NC(c2ccsc2)C(C#N)(C#N)NC1c1ccsc1 (centres undefined)
> 100 µM

----------
Test system: SK-MEL-5 melanoma
METHOD NOTES: NCI tumour cell line growth inhibition, 48 h; in the data active = GI50 below about 0.43 µM; inactive = the rest
Your answer must be one of the following: true (1) (active), false (0) (inactive)

In this assay, the call recorded for CCCCCCCC(=O)OCC/C=C/C1OC1C1OC(=O)/C=C\C=C\C(=O)N(C(C)=O)C(=O)/C=C(/C)CCC2OC2C1OC(=O)NC(C)=O (centres undefined) was what?
false (0)

Can you look up the reported call for `COc1ccc(-c2ccc(OC)c(OC)c2OC)cc1` for me?
false (0)

What call does the record list for `Cc1ccc(/C(=N/Nc2ccc([N+](=O)[O-])cc2)Sc2cc(Cl)c(C)cc2S(N)(=O)=O)cc1` ?
false (0)

Give the logged outcome of this assay for the following molecule: `Nc1cc2c3c(cccc3c1)C(=O)N(CCN1CCCC1)C2=O`
false (0)

What outcome does the record of this test show for `COc1cc2c(/C=C3\C(=O)Nc4ccccc43)c[nH]c2cc1C` ?
true (1)

How was [N-]=[N+]=CC(=O)CCC(N)C(=O)O (centres undefined) classified in this test?
false (0)

For this molecule, state the assay outcome: `CC1(C)CC(C)(C)c2cc(NC(=S)Nc3ccc([N+](=O)[O-])cc3)ccc2S1`
false (0)

Which outcome was entered for the molecule `CCOC(=O)Nc1ccc2nc(-c3cscn3)[nH]c2c1` in this test?
false (0)

# fetch the recorded call for `Cn1c(COC(=O)NCCn2ccnc2)nc2c(N3CCOCC3)nc(-c3ccccc3)nc21` here
false (0)

----------
TGI values, listed per item
Tested on: 786-0 renal
METHOD NOTES: NCI tumour cell line growth inhibition, 48 h

Some solved cases for reference:
COc1ccc2c(c1)C(=O)c1c-2c(OCCCN(C)C)nc2cc(Br)ccc12: 2.99 µM
O=C1NC(O)n2c(=O)[nH]c(=O)n21 (stereo not drawn): > 100 µM
c1cnc2c(c1)-n1cccc1C1(CCCCC1)NN2: > 100 µM
COc1ccc2[nH]c(C(=O)N3CCN(C(=O)OCc4ccc5c(Cl)cc(Cl)c(O)c5n4)CC3)cc2c1: 2.82 µM
COC1=CC(=O)O/C1=C(\OC)C1OC1c1ccccc1 (stereo not drawn): > 100 µM

State, for 786-0 renal, measured TGI of the compound listed here: COC(=O)[C@]1(c2cc3ccccc3n2S(=O)(=O)c2ccccc2)CC2CN(C(=O)OCc3ccccc3)C1C1OC(C)(C)OC21 (stereo partly drawn)
> 100 µM

Name the recorded TGI of `COP(=O)(OC)OCN(C)CC/C=C(\C)CC/C=C(\C)CCC=C(C)C` , assay system 786-0 renal.
31.3 µM

----------
Test system: U251 CNS
Answer with one of the outcomes given here: label 1 for active, label 0 for inactive

Observe how each entry below is paired with its result.
O=S(=O)(NC1=NCCN1C(=S)SN1CCn2c1nsc2=S)c1ccc(Cl)cc1: label 0
O=C1C(=O)c2c(nc3ccc(C(F)(F)F)cn23)-c2ccccc21: label 1

Please share the test call associated with COc1cc(/C=N/NC(=O)c2cnn3c2NC(c2ccccc2)C3)ccc1OC1CCCC1 (stereo not given) .
label 0

Which outcome was entered for the compound `COc1ccc2c(c1)C(=O)c1c-2c(OCCCN(C)C)nc2cc(Br)ccc12` in this test?
label 0

Write down the call the test reported for this compound. Item: `O=c1c(Cc2ccc3c(c2)OCO3)nnc2sc(-c3cc(F)c(Cl)cc3Cl)nn12`
label 0

----------
Tested on: MALME-3M melanoma
METHOD NOTES: NCI tumour cell line growth inhibition, 48 h
MEASURE: TGI

C=C(NC(=O)C(=C)NC(=O)c1ccc2c(n1)-c1coc(n1)C(=C)NC(=O)C(=C)NC(=O)c1nc(oc1C)C(=C)NC(=O)C(C(C)(C)O)NC(=O)C(=C)NC(=O)c1coc(n1)/C(=C/C)NC(=O)[C@H]([C@@H](C)O)NC(=O)c1csc-2n1)C(N)=O (some centres undefined): > 87.5 µM
CC(=O)CC1(CBr)Nc2ccc([N+](=O)[O-])cc2NC1=O (centres undefined): > 100 µM

Give reported TGI value for Cc1nnc2n1N=C(c1ccccc1)C(c1ccccc1)S2 (centres undefined)
> 100 µM

Indicate its recorded TGI; the compound in question is C=CCC(O[Si](C)(C)C(C)(C)C)c1cc(O[Si](C)(C)C(C)(C)C)ccc1OC (centres undefined)
> 100 µM

Please report TGI for the following compound: `Cc1c(C)c2c(c(N)c1C#N)C(=O)N(N)C2=O`
> 100 µM

Provide only the value of recorded TGI for `COC(=O)C1=C(CCCCO[Si](C)(C)C(C)(C)C)NC(=O)N2[C@H](CCOCc3ccccc3)CC[C@@H]12`
> 100 µM

Provide only the value of recorded TGI for `N#Cc1c(-c2ccc([N+](=O)[O-])cc2)c(C#N)c(=O)n(NS(=O)(=O)c2ccccc2)c1S`
> 100 µM

Entry CC(O)c1nc(C#N)c(N)o1 (centres undefined) needs its TGI filled in; supply it.
> 100 µM

// Input: `N#C/C(=C\c1ccc2[nH]ccc2c1)C(=O)NCCCCNC(=O)/C(C#N)=C/c1ccc2[nH]ccc2c1` . Output its TGI only.
> 31.6 µM
